Molecular target: HLA-B*07 (Homo sapiens)
Experiment: MHC binding assay (UV-ligand exchange, ELISA of stabilized MHC complexes)
Conditions: peptide exchange yield on HLA-B*07, UV-ligand exchange
measure: Peptide exchange

• 231 (SPITLQAL; listed as Homo sapiens) [compound 231] = ++++ (>75% = ++++)
• 174 (IPVTSSVTL; listed as Homo sapiens) [compound 174] = ++++ (>75% = ++++)
• 324 (LPAPLRISL; listed as Homo sapiens) [compound 324] = ++++ (>75% = ++++)

----------
Biological target: HLA-B*07 (Homo sapiens, UniProt P01889)
Assay: MHC binding assay (UV-ligand exchange, ELISA of stabilized MHC complexes)
Conditions: peptide exchange yield on HLA-B*07, UV-ligand exchange
measure: Peptide exchange

• 467 (VPRNQDWLGVSRQL; listed as Homo sapiens) [compound 467] = ++++ (>75% = ++++)
• 104 (RPLPNSVIHV; listed as Homo sapiens) [compound 104] = +++ (>50 = +++)
• 370 (AAHEFGHVL; listed as Homo sapiens) [compound 370] = ++ (>20% = ++)
• 188 (HAAASFETL; listed as Homo sapiens) [compound 188] = ++ (>20% = ++)
• 145 (VPAQRLGLLL; listed as Homo sapiens) [compound 145] = +++ (>50 = +++)
• 180 (RLRDYISSL; listed as Homo sapiens) [compound 180] = ++++ (>75% = ++++)
• 276 (RPVWDVRSA; listed as Homo sapiens) [compound 276] = ++++ (>75% = ++++)
• 459 (SPAPWRPWI; listed as Homo sapiens) [compound 459] = ++++ (>75% = ++++)
• 287 (SPIPRPLFL; listed as Homo sapiens) [compound 287] = ++++ (>75% = ++++)
• 452 (QPVKKNTL; listed as Homo sapiens) [compound 452] = ++++ (>75% = ++++)
